Test: NCI Yeast Anticancer Drug Screen. Data for the rad50 strain (AID 155);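 further: 0% = growth of vehicle-only cultures of the same strain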
Conditions: S. cerevisiae rad50 strain growth inhibition; at 50.0 µM; stronger effect = higher value
This is part of a sample that, as a whole, favours compounds with a hit. Of some 79,000 tested, about 15% had one in any assay. Calls of active or inactive are those of the source. No stated cut-off is given here; in the data, active means growth inhibition above about 70%; inactive means the rest.
Reported growth inhibition values for the following compounds.

Example results:
input: Quick one: growth inhibition of CC(c1ccccc1)n1cnc2c(N(CCO)CCO)ncnc21 (stereo unspecified) ?
output: 2.5% (inactive)

input: Quick one: growth inhibition of Cc1ccc(C(=Nc2ccccc2)N=S(c2ccccc2)c2ccccc2)cc1 ?
output: -2.2% (inactive)

input: Quick one: growth inhibition of Cn1c2ccccc2c(=O)c2c(O)cc3c(c21)C=CC1(CCCCC1)O3 ?
output: -4.75% (inactive)

input: Quick one: growth inhibition of CC(=O)OC/C=C(\C)CCC=C(C)C ?
output: -21.6% (inactive)

input: Quick one: growth inhibition of Cc1ccc(S(=O)(=O)N/N=C/C(C)(c2ccccc2)c2ccccc2)cc1 ?
output: 70.9% (active)

New cases:
input: Quick one: growth inhibition of N#CC1=C(Nc2ccccc2)SC(c2cccs2)NC1=O (stereo unspecified) ?
output: 12.4% (inactive)
